System: MTT (mouse pheochromocytoma)
Experiment Description: efficacy (maximal response) relative to doxorubicin = -100% and DMSO = 0%; higher = less inhibition of viability
Measurement Setup: (24 or 48 h)
Classify by measured efficacy: MET if it is equal to or exceeds -60%, NOT MET if it is smaller.

For this compound, is measured efficacy -60% or higher? N=c1ccn2c(n1)O[C@H]1[C@H](O)[C@@H](CO)O[C@H]12 [Ancitabina]
NOT MET

# repeat for Oc1ccc(OCc2ccccc2)cc1 [Monobenzone]
MET

# repeat for Cc1cc(O)c2ccccc2c1O [Menadiol]
NOT MET

# repeat for COc1ccc(CCN2CCC(Nc3nc4ccccc4n3Cc3ccc(F)cc3)CC2)cc1 [ASTEMIZOLE]
NOT MET

# repeat for [Na+].CCC(C1CCC(C)C(O1)C(C)C(O)C(C)C(=O)C(CC)C2OC\3(O[C@]4(CC[C@@](C)(O4)C5CC[C@@](O)(CC)C(C)O5)C(O)\C=C3)C(C)CC2C)C([O-])=O (some centres not stated) [SALINOMYCIN, SODIUM]
MET

---

Task for the reader: assign each of the following compounds its reported IC50 of cell viability.
System: MTT (mouse pheochromocytoma)
Experiment Description: IC50 of cell viability (ATP content)
Measurement Setup: (24 or 48 h)

State the recorded IC50 of cell viability for this entry: COc1cc2c(cc1OC)[C@@H](Cc1cc(OC)c(OC)c(OC)c1)[N@+](C)(CCCOC(=O)CC/C=C/CCC(=O)OCCC[N@+]1(C)CCc3cc(OC)c(OC)cc3[C@H]1Cc1cc(OC)c(OC)c(OC)c1)CC2 [Mivacurium]
> 46 µM

# repeat for Oc1c(Br)cc(Br)cc1Br [2,4,6-Tribromophenol]
> 46 µM

# repeat for C[C@@](Cc1ccc(O)c(O)c1)(NN)C(=O)O [CARBIDOPA]
> 46 µM

# repeat for O=C(Nc1ccc(Oc2ccc(Cl)cc2)c(Cl)c1)c1cc(I)cc(I)c1O [Rafoxanide]
> 46 µM

---

Tested on: MTT (mouse pheochromocytoma)
Experiment Description: IC50 of cell viability (ATP content)
Measurement Setup: (24 or 48 h)
Structures can show the parent of a compound that is named as a salt.
Task for the reader: assign each of the following compounds its reported IC50 of cell viability.

Param readout= IC50 of cell viability; system= MTT (mouse pheochromocytoma); entry= NCc1ccccc1Sc1ccccc1CO [Bipenamol hydrochloride] ; returns value.
> 46 µM

# repeat for CC1CC2C(CC[C@]3(C)C2CC[C@@]3(OC(C)=O)C(C)=O)[C@]\4(C)CCC(=O)\C=C14 (some centres undefined) [MEDROXYPROGESTERONE ACETATE]
> 46 µM

# repeat for Nc1ccc([S+](N)(=O)[O-])cc1 [Sulfanilamide]
> 46 µM

# repeat for CC(C)=CCC/C(C)=C/CC/C(C)=C/CCC(=O)OC/C=C(\C)CCC=C(C)C [Geranyl farnesylacetate]
> 46 µM

---

System: MTT (mouse pheochromocytoma)
Experiment Description: IC50 of cell viability (ATP content)
Measurement Setup: (24 or 48 h)
Where a name gives a salt, the structure may show the parent alone.
Task for the reader: assign each of the following compounds its reported IC50 of cell viability.

State the recorded IC50 of cell viability for this entry: C/C=C1/NN(CCCN2CCN(c3cccc(Cl)c3)CC2)C(=O)N1CCOc1ccccc1 [Nefazodone hydrochloride]
> 46 µM

# repeat for `C1C\N=C(\COC2=C(C=CC=C2)C3CC3)N1`
> 46 µM

# repeat for `COP(=S)(OC)Oc1ccc([S+](=O)([O-])N(C)C)cc1`
> 46 µM

# repeat for `ClC1=CC=C2C(CCC3=C(N=CC=C3)\C2=C4\CCNCC4)=C1`
> 46 µM

# repeat for `CC/C=C\C/C=C\C/C=C\CCCCCCCC(=O)O`
> 46 µM

# repeat for FC(F)OC(Cl)C(F)(F)F (stereo not drawn)
> 46 µM

# repeat for `O=[N+]([O-])c1cc([As](=O)(O)O)ccc1O`
> 46 µM

# repeat for NCCCCC(NC(=O)C1CCCN1C(=O)C1CSSCC(N)C(=O)NC(Cc2ccccc2)C(=O)NC(Cc2ccccc2)C(=O)NC(CCC(N)=O)C(=O)NC(CC(N)=O)C(=O)N1)C(=O)NCC(N)=O (stereo not drawn)
> 46 µM
